System: T. cruzi intracellular amastigotes in H9c2 cells
assay-notes: Rate-of-Kill (RoK) high-content imaging assay, amastigotes per cell (AM/CELL) and curve descriptors
Format: cell-based, Trypanosoma cruzi
recorded-conditions: Time 48; sheet figure 4 A
Documented AM/CELL NORM across a set of compounds
measurement-kind: AM/CELL NORM

>>> print(df.to_string())
                                    compound                              assay_system  measured_result
 0  COc1ccc(NS(=O)(=O)c2cc(NC(=O)c3ccc([N+](=O)[O-])s3)ccc2OC)cc1  T. cruzi intracellular amastigotes in H9c2 cells          96.1683
 1  O=C(CN(c1cccc(C(F)(F)F)c1)S(=O)(=O)c1ccc(Cl)cc1)NCc1ccc(F)c(F)c1  T. cruzi intracellular amastigotes in H9c2 cells         -14.5763
 2  Cc1nc2nc(C)c(Cc3ccc(C(C)C)cc3)c(=O)n2[nH]1  T. cruzi intracellular amastigotes in H9c2 cells          64.8982
 3  COc1ccc(CN(C)Cc2ccncc2)cc1-c1ccc(S(=O)(=O)NC2CCC2)s1.O=C(O)C(F)(F)F.O=C(O)C(F)(F)F  T. cruzi intracellular amastigotes in H9c2 cells          25.1182
 4  Cc1cc2cncn2c(C2CCCCN2C(=O)c2cccs2)n1 (stereo not drawn)  T. cruzi intracellular amastigotes in H9c2 cells          -13.304
 5  CCOc1cnn(C)c(=O)c1Nc1ccc(C(=O)NCc2ccc(F)cc2)cc1  T. cruzi intracellular amastigotes in H9c2 cells         -82.6884
 6  CC(C)c1cc(C(=O)N2CCCC(c3cc4ncccc4[nH]3)C2)on1 (stereo not drawn)  T. cruzi intracellular amastigotes in H9c2 cells          76.8723
 7        O=C(NCCc1cccnc1)c1csc(-c2ccccc2)n1  T. cruzi intracellular amastigotes in H9c2 cells         -77.3027
 8      COc1ccc(C(C)(C)C)cc1S(=O)(=O)n1ccnc1  T. cruzi intracellular amastigotes in H9c2 cells         -75.3113
 9            CCCCn1nnnc1CSc1nc(C)cc(C)c1C#N  T. cruzi intracellular amastigotes in H9c2 cells          83.3988
10  Cc1[nH]nc2c1C(c1ccc(OCc3ccccc3F)cc1)SCC(=O)N2 (stereo not drawn)  T. cruzi intracellular amastigotes in H9c2 cells           -7.539
11  COc1ccc(S(=O)(=O)NC(C)C)cc1Nc1ncc(-c2cccc(F)c2)cn1  T. cruzi intracellular amastigotes in H9c2 cells         -64.9455
12  CS(=O)(=O)c1ccc(CC(=O)Nc2nc(-c3ccc(Cl)s3)cs2)cc1  T. cruzi intracellular amastigotes in H9c2 cells          -205.24
13  COc1cccc(CCNC(=O)C(c2cn[nH]c2)N2CCN(c3ccc(Cl)cc3)CC2)c1 (stereo not drawn)  T. cruzi intracellular amastigotes in H9c2 cells          102.276
14  O=C(CSc1ccc(F)cc1)N[C@@H](Cc1cnc[nH]1)C(=O)NCCc1ccccc1.O=C(O)C(F)(F)F  T. cruzi intracellular amastigotes in H9c2 cells         -169.506
15   O=C(CSc1ccc(-c2ccccn2)nn1)Nc1ccc(Cl)cc1  T. cruzi intracellular amastigotes in H9c2 cells         -606.539
16  COc1cc(C(C)C)c(S(C)(=O)=O)cc1C(=O)N1CCN(c2ccccc2Cl)CC1  T. cruzi intracellular amastigotes in H9c2 cells         -56.5005
17  CN(Cc1ccc(C(N)=O)cc1)C(c1ccc(F)cc1)c1cccnc1 (stereo not drawn)  T. cruzi intracellular amastigotes in H9c2 cells         -163.001
